src = PubChem BioAssay AID504763

assay.system: Hexokinase-1 (Homo sapiens) (UniProt P19367)
Sequence (P19367 whole entry, looked up): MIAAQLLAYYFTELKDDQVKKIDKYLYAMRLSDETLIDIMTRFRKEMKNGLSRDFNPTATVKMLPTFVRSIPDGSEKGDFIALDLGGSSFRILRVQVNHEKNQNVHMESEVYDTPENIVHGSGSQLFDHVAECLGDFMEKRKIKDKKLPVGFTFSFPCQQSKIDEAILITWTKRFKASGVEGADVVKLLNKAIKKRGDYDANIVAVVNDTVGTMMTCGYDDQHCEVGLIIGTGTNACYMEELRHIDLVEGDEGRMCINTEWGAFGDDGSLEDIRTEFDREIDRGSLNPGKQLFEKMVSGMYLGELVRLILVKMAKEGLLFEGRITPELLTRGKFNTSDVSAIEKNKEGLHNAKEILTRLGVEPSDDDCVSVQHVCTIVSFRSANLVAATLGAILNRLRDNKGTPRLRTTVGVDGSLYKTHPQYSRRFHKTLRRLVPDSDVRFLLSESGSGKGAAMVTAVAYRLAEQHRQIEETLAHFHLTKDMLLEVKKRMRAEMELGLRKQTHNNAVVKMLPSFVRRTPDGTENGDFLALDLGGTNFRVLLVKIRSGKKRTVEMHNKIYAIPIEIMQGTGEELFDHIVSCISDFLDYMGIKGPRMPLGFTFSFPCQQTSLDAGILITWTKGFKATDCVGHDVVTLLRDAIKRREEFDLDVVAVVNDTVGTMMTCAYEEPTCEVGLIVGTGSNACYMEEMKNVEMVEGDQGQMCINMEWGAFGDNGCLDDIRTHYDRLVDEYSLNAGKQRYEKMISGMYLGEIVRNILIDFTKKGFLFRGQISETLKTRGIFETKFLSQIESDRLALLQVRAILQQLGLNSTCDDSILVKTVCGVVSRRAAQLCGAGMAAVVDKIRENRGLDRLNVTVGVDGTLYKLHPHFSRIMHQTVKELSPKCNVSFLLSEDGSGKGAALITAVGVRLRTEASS
protocol.details: HK1 enzyme inhibitors – biochemical, selectivity assay for HKDC1 inhibitor project, dose response (AID 504763); call rule not given here
study.conditions: biochemical inhibition
Valid outcomes are listed here; reply with one: 1 (active), 0 (inactive)

Query :: // outcome(item) with item = COCC(=O)OC1CCn2c1nc1c2C(=O)C(C)=C(NC(C)=O)C1=O (stereo unspecified)
Result :: 1

###

assay.system: Hexokinase-1 (Homo sapiens) (UniProt P19367)
protocol.details: HK1 enzyme inhibitors – biochemical, selectivity assay for HKDC1 inhibitor project, dose response (AID 504763)
study.conditions: biochemical inhibition
The source made the active and inactive calls. How the calls were made is not given here.
Response enum: active, inactive

Examples from the recorded data:
Cc1cccc2c(N=NC(=O)c3ccc(NS(=O)(=O)c4cccs4)cc3)c(O)[nH]c12 ... inactive
Cc1ccc(N=Cc2cc(Cc3ccccc3Cl)cc([N+](=O)[O-])c2O)c(O)c1 ... inactive

Query :: Look up the recorded call for N#C/C(=C(/O)CCl)c1nc2c(s1)CCc1ccccc1-2 in this test.
Result :: inactive

Query :: Check the results log: what was the call for COCc1cc(C2C(C(=O)c3ccco3)=C(O)C(=O)N2CCOCCO)ccc1O (centres undefined) ?
Result :: inactive

Query :: Test call, this molecule: C=CCn1c(SCC(=O)Nc2sc3c(c2C#N)CCC(C)C3)nc2cc(C(=O)O)ccc2c1=O (centres undefined)
Result :: inactive

Query :: Check the results log: what was the call for CC(NC1=CC(=O)c2cccnc2C1=O)C(O)c1ccccc1 (centres undefined) ?
Result :: inactive

Query :: Lab log entry: Cc1nc2c(O)c3c(c(O)c2nc1C)C1C=CC3CC1 — outcome as called in the assay?
Result :: active

Query :: Record request — test call for COC1(NS(=O)(=O)c2ccc(Br)cc2)C(C)=CC(=O)C=C1C
Result :: inactive

###

assay.system: Hexokinase-1 (Homo sapiens) (UniProt P19367)
protocol.details: HK1 enzyme inhibitors – biochemical, selectivity assay for HKDC1 inhibitor project, dose response (AID 504763)
study.conditions: biochemical inhibition
Active and inactive are the calls of the source. The rule behind the calls is not given here.
Use one of these outcomes when replying: class 1 for active, class 0 for inactive

COc1ccc(CN2C(=O)c3cccnc3C2O)cc1 (stereo not given) ... class 0
O=[N+]([O-])c1ccc(NN=Cc2ccc(O)cc2O)nc1 ... class 0
Cc1cccc(C)c1Nc1nnc(SCc2cn3cccc(C)c3n2)s1 ... class 0
O=C1C(Cl)=C(NCCc2ccccc2)C(=O)c2ccccc21 ... class 1

We next turn to a different compound, shown below.
Query :: Recorded test call requested for CCCc1nc2c(c(=O)c3ccccc3n2C)c(=O)n1-c1ccc(F)cc1
Result :: class 1

###

assay.system: Hexokinase-1 (Homo sapiens)
protocol.details: HK1 enzyme inhibitors – biochemical, selectivity assay for HKDC1 inhibitor project, dose response (AID 504763)
study.conditions: biochemical inhibition
Calls of active or inactive are those of the source. No rule for the calls is given here.
Classes to choose from: active, inactive

Consider the following illustrative entries.
O=C(NCCc1ccccc1)c1cnn2c(C(F)F)cc(C3CC3)nc12 ... active
O=C(CNC(=O)/C=C/c1ccco1)N=Nc1c(O)[nH]c2ccccc12 ... inactive
Oc1ccc(/C=N/Nc2ncc(Br)cn2)c(O)c1 ... inactive

Query :: Could you check what this test reported for Cc1ccc(NC2c3ncccc3C(=O)N2c2ccccc2C)cc1C (stereo unspecified) ?
Result :: inactive

Query :: Each compound tested received a call. Report the one for CC1COCC(C)N1C1=C(Cl)C(=O)c2ccccc2C1=O (stereo unspecified) .
Result :: inactive

Query :: What outcome does the record of this test show for COc1cc(/C=C(\C#N)c2nc3ccc(C)cc3[nH]2)cc([N+](=O)[O-])c1O ?
Result :: active
